Provenance of the data: ChEMBL document CHEMBL2417369

# EXPERIMENTAL TARGET: Tyrosine-protein kinase Lyn (Homo sapiens, UniProt P07948)
# Sequence (P07948 2-512 limits assumed): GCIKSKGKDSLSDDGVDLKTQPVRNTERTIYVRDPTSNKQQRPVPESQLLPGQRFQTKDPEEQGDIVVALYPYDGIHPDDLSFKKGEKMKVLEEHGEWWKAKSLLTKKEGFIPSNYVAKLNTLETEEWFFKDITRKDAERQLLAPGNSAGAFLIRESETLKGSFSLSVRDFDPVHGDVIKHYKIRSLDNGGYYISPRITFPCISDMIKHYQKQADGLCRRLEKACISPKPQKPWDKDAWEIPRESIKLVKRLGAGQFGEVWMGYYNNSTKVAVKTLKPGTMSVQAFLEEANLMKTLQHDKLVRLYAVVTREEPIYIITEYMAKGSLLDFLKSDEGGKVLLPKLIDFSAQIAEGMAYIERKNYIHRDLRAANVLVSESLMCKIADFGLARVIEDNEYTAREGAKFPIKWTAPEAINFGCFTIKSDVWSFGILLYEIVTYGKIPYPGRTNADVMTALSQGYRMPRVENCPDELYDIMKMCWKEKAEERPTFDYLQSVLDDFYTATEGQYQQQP
# PROCEDURE SUMMARY: Inhibition of LYN (unknown origin) at 30 uM by microfluidic mobility shift assay relative to control
EXPERIMENTAL ENDPOINT: inhibition
Answer with the figure and its unit, nothing else.

Examples with their reported inhibition follow.
c1nc(N2CCCC3(CCNCC3)C2)c2nc[nH]c2n1; 33%
c1nc(N2CCCC3(CCCNC3)C2)c2nc[nH]c2n1 (configuration not stated); 2%
c1nc(N2CCC3(CCCCN3)CC2)c2nc[nH]c2n1; 52%
O=S(=O)(c1cccc2cnccc12)N1CCC2(CCCN2)CC1; 11%
c1ccc(C2CCC3(CCN(c4ncnc5[nH]cnc45)CC3)NC2)cc1 (configuration not stated); 44%
OC1CCNC2(CCN(c3ncnc4[nH]cnc34)CC2)C1 (racemic); 39%

// switching to the query molecule
Request: Item: "NC1(Cc2ccccc2)CCN(c2ncnc3[nH]cnc23)CC1" Test system: Tyrosine-protein kinase Lyn (Homo sapiens, UniProt P07948) Read-out: inhibition Value: ?
Result: 72%
